- Tested on: anti-pregabalin antibody
- Procedure text: Specificity of the homogeneous enzyme immunoassay (cross-reactivity)
- Format: binding, rabbit
- Measurement context: compound at 200 μg/mL added to pooled pregabalin-free human urine; Siemens Viva-E System
% Crossreactivity values for the compounds below.
Readout name: % Crossreactivity (%)

>>> observed_value("CC(C)[C@H](N)C(=O)O")
0.006
>>> observed_value("NCC1(CC(=O)O)CCCCC1")
0.019
>>> observed_value("CC(C)C[C@H](N)C(=O)O")
0.038
>>> observed_value("N[C@@H](Cc1ccccc1)C(=O)O")
0.006
>>> observed_value("N[C@@H](Cc1c[nH]cn1)C(=O)O")
0.007
>>> observed_value("N[C@@H](Cc1c[nH]c2ccccc12)C(=O)O")
0.006
